Tested on: TYKNU
Test: fractional viability relative to vehicle; TYKNU is a high-grade serous ovarian cancer line; higher = less growth inhibition
Details: 10uM; 72 h; genotype: DNM1L knockout (sgDNM1L #1)
Counter-ions that a name gives are not always drawn. In all, about 2,000 compounds were measured (“fractional viability relative to vehicle”: median about 0.91, lowest 2% from about 0.045 on). This excerpt belongs to a sample that is enriched for the lowest values.
property: fractional viability
API note: the answer field is a bare number with no unit suffix.

Look up and report measured fractional viability for this entry: CC[C@H]1OC(=O)C[C@@H](O)[C@H](C)[C@@H](O[C@@H]2O[C@H](C)[C@@H](O)[C@H](N(C)C)[C@H]2O)[C@@H](CCN2C[C@H](C)C[C@H](C)C2)C[C@@H](C)C(=O)/C=C/C(C)=C/[C@@H]1CO[C@@H]1O[C@H](C)[C@@H](O)[C@@H](OC)[C@H]1OC
1.49

Look up and report measured fractional viability for this entry: CCN(CC)CCNC(=O)c1ccc(N)cc1 [Procainamide HCl]
0.633

Look up and report measured fractional viability for this entry: Clc1cccc(CN=C2Nc3ccccc3NC23CCNCC3)c1
0.646

Look up and report measured fractional viability for this entry: COC(=O)N[C@H](C(=O)N1CCC[C@H]1c1ncc(-c2ccc(-c3ccc(-c4cnc([C@@H]5CCCN5C(=O)[C@@H](NC(=O)OC)C(C)C)[nH]4)cc3)cc2)[nH]1)C(C)C
0.511

Look up and report measured fractional viability for this entry: CCN(CC)CCNC(=O)c1c(C)[nH]c(/C=C2\C(=O)Nc3ccc(F)cc32)c1C
0.0734

Look up and report measured fractional viability for this entry: Cc1[nH]c(/C=C2\C(=O)Nc3ccccc32)c(C)c1CCC(=O)O [TSU-68 (SU6668, Orantinib)]
0.869

Look up and report measured fractional viability for this entry: CN(C)CCc1c[nH]c2ccc(CS(=O)(=O)N3CCCC3)cc12 [Almotriptan Malate]
0.947

Look up and report measured fractional viability for this entry: CC(C)c1cnn2c(NCc3ccccc3)cc(NCCCCCCN)nc12
0.83

Look up and report measured fractional viability for this entry: Cc1nc(N(C)C(=O)Cc2ccc(-c3ccccn3)cc2)sc1S(N)(=O)=O
0.855

Look up and report measured fractional viability for this entry: COCC(=O)NC/C=C/c1ccc2ncnc(Nc3ccc(Oc4ccc(C)nc4)c(C)c3)c2c1
0.886

Look up and report measured fractional viability for this entry: Cc1ncc(CCCN(C)C)cc1Nc1ncc2c(n1)-c1ccc(C(F)(F)F)cc1NC(=S)C2
0.259

Look up and report measured fractional viability for this entry: c1coc(CNc2ncnc3[nH]cnc23)c1
0.361

Look up and report measured fractional viability for this entry: CN1CCN(c2ccc(Nc3cc(-c4cccc(-n5ccc6cc(C7CC7)cc(F)c6c5=O)c4CO)cn(C)c3=O)nc2)CC1
0.114

Look up and report measured fractional viability for this entry: C/C=C1\NC(=O)[C@H]2CSSCC/C=C/[C@H](CC(=O)N[C@H](C(C)C)C(=O)N2)OC(=O)[C@H](C(C)C)NC1=O [Romidepsin (FK228, Depsipeptide)]
0.0444

Look up and report measured fractional viability for this entry: CCOC(=O)[C@H](CCc1ccccc1)N[C@@H](C)C(=O)N1C(=O)N(C)C[C@H]1C(=O)O [Imidapril HCl]
0.958

Where these numbers come from: the supplement of paper PMC5919970
